For each record, write down the corresponding growth inhibition.
test description: NCI Yeast Anticancer Drug Screen. Data for the bub3 strain (AID 167)
condition set: S. cerevisiae bub3 mutant strain, at 50.0 µM, active compounds read high
Method: Growth inhibition of yeast strains with defined genetic alterations is measured as a screen for potential anti-cancer activity. Selected strains with alterations in DNA damage repair or cell cycle control were exposed to compounds and growth inhibition was measured relative to vehicle treated controls. The strain used in this assay is bub3
About 79,000 compounds went through this panel and 15% of them were active in at least one assay; those are over-represented in the sample as a whole.
Give bare numbers, in %.

Below are worked cases with known answers.
compound: c1csc(C(NC2=NCCO2)C2CC2)c1 (centres undefined)
quantity: growth inhibition
assay result: -27.5

compound: CCOC(=O)C(C#N)(C1C=CCC1)C1C=CCC1 (centres undefined)
quantity: growth inhibition
assay result: 46.3

compound: ClCc1nn(-c2ccccc2)c(CCl)c1CCl
quantity: growth inhibition
assay result: 8.25

compound: Brc1ccc2noc(-c3ccccc3)c2c1
quantity: growth inhibition
assay result: 9.95

compound: CCCCCCC(Br)CCCC (centres undefined)
quantity: growth inhibition
assay result: -7.75

compound: O=C(Nc1ccc(NC(=O)Nc2cc(C(F)(F)F)ccc2Oc2ccc(Cl)c(Cl)c2)cc1)Nc1cc(C(F)(F)F)ccc1Oc1ccc(Cl)c(Cl)c1
quantity: growth inhibition
assay result: -35.1

compound: Cc1ccccc1C(=O)NNC(=O)c1ccc2ccccc2c1
quantity: growth inhibition
assay result: -13.2

compound: C(/C=C\c1ccccc1)=Nc1ccccc1
quantity: growth inhibition
assay result: 0.2

Consider the following items and state reported growth inhibition for each.
1. OC1c2ccccc2C(O)c2c1ccc1c2CN(Cc2ccccc2)CC1 (centres undefined)
2. COc1ccc(OC(C)C(=O)O)c2c1CCCC2=O (centres undefined)
3. O=c1[nH]cc(CNc2ccccc2)c(=O)[nH]1
4. CC(=O)OC1(C)N=NC2(CCCCC2)O1 (centres undefined)
5. CC(C)CCOC(=O)COc1ccc(Cl)cc1Cl

1: 1.3; 2: 5.15; 3: -18.2; 4: -12.1; 5: 18.8

# per-item lookup of growth inhibition; items listed below
1. CNCC(=O)Nc1ccc2c(c1)C(=O)c1ccc(NC(=O)CNC)cc1C2=O
2. O=c1[nH]nc(SCc2ccccc2)c(=O)[nH]1
3. c1ccc(CN[C@]23C4C5CC6C7C5C2C7[C@@](NCc2ccccc2)(C64)N3Cc2ccccc2)cc1 (some centres undefined)
4. CCNC(=O)C1CCCN1C(=O)C(CCCN=C(N)N)NC(=O)C(CC(C)C)NC(=O)C(Cc1c[nH]c2ccccc12)NC(=O)C(Cc1ccc(O)cc1)NC(=O)C(CO)NC(=O)C(Cc1c[nH]c2ccccc12)NC(=O)C(Cc1cnc[nH]1)NC(=O)C1CCC(=O)N1 (centres undefined)
5. Cc1ccccc1NC(=O)c1ccccc1
6. O=C(NCc1ccncc1)Nc1ccc(Cc2ccc(NC(=O)NCc3ccncc3)cc2)cc1
7. C=C1CC(C)(COc2ccc3c(C)cc(=O)oc3c2)OC1=O (centres undefined)

1: -11.9; 2: 0; 3: -0.85; 4: 6.05; 5: 5.85; 6: 3.5; 7: 20.4
